Values compiled from ChEMBL document CHEMBL1201862.

tested on: HCT-116; test: NCI tumour cell line growth inhibition, 48 h
Active and inactive are the calls of the source. No stated cut-off is given here; in the data, active = GI50 up to about 1.1 µM and inactive = higher.
Labels: YES = active, NO = inactive

compound: Nc1ncnc2c1ncn2C1C=CC(CP(=O)(O)O)C1 (stereo not drawn)
qualitative label: NO
--
compound: N#Cc1c(-c2ccccc2)[nH]c(=O)n(C2OC(CO)C(O)C(O)C2O)c1=O (stereo not drawn)
qualitative label: NO
--
compound: CC1(C)OC2C(=O)C=C(COCc3ccccc3)C2O1 (stereo not drawn)
qualitative label: NO
--
compound: COc1ccc(/C=C2\CCC(CNc3ccc(OC)cc3)C2=O)cc1 (stereo not drawn)
qualitative label: NO
--
compound: C[N+](C)(C)CCN(Cc1cccs1)c1ccccn1
qualitative label: NO
--
compound: CC(=O)C12C[C@](C#N)(N3CCCCCC3)C1C=Cc1ccccc12 (stereo partly drawn)
qualitative label: NO
--
compound: O=C1CC(CC(=O)C2CCCCC2=O)C(=O)N1 (stereo not drawn)
qualitative label: NO
--
compound: Cc1c(Cl)ccc2c1NC(=O)C2(O)CC(=O)c1cccc2ccccc12 (stereo not drawn)
qualitative label: NO
--
compound: Cc1noc(C)c1-n1nc2ccc3nonc3c2n1
qualitative label: NO
--
compound: O=C1NC(=S)NC(=O)C1=Cc1ccc([N+](=O)[O-])o1
qualitative label: NO
--
compound: COc1ccc(NC(=O)CSc2nnc(-c3ccc(/N=C\c4ccc(Cl)cc4)cc3)o2)cc1
qualitative label: NO
--
compound: c1ccc(/C(=N/Nc2nc3ccccc3s2)C2CCCCC2)nc1
qualitative label: YES
--
compound: Cc1cc(=O)n2nc(CSc3nnc(S)s3)sc2n1
qualitative label: NO
--
compound: O=C(c1ccccc1)n1c2ccc(Br)cc2c2nc3ccccc3nc21
qualitative label: NO
--
compound: COC1=CC(=O)C(O)=C(CC2(C)C(C)CCC3(C)C2CCCC3(C)C)C1=O (stereo not drawn)
qualitative label: NO
--
compound: COc1cccc2c1C(=O)c1c(O)c3c(c(O)c1C2=O)CC(O)(C(C)=O)CC3OC1OC(COC(C)=O)C(OC(C)=O)C(OC(C)=O)C1OC(C)=O (stereo not drawn)
qualitative label: NO
--
compound: CCN(CC)CCSc1c2ccccc2nc2cc(NCC(=O)Nc3ccccc3-c3ccccc3NC(=O)CNc3ccc4c(SCCN(CC)CC)c5ccccc5nc4c3)ccc12
qualitative label: NO
--
compound: O=C(O)CNc1cc(-c2ccccc2)nc(NCC(=O)O)n1
qualitative label: NO

----------
system: SF-295; assay: NCI tumour cell line growth inhibition, 48 h
The source made the active and inactive calls. No stated cut-off is given here; in the data, active = GI50 up to about 1.1 µM and inactive = higher.
experimental endpoint: GI50

compound: CC1=NN(C2=NS(=O)(=O)c3ccccc3N2C)C(=O)C1
experimental endpoint: GI50
result: > 100 µM (inactive)

compound: CCOC(=O)C12OC(CCC1=O)C(C(=O)OC)=C2C(=O)OC (stereo unspecified)
experimental endpoint: GI50
result: > 10 µM (inactive)

compound: O=c1c2c(c1=O)C1(SCCCS1)c1cc(Cl)ccc1O2
experimental endpoint: GI50
result: > 100 µM (inactive)

compound: COP(C)(=O)C1=CCN(C(=O)OCC[Si](C)(C)C)CC1 (stereo unspecified)
experimental endpoint: GI50
result: > 100 µM (inactive)

compound: CC(=O)C12C[C@](C#N)(N3CCCCCC3)C1C=Cc1ccccc12 (stereo partly specified)
experimental endpoint: GI50
result: > 100 µM (inactive)

compound: CCOC(=O)N1C/C(=C\c2ccccc2)C(=O)/C(=C/c2ccccc2)C1
experimental endpoint: GI50
result: 3.01 µM (inactive)

compound: NC(=O)c1nnc2c(F)cccc2c1N
experimental endpoint: GI50
result: > 100 µM (inactive)

compound: Cc1nn2c(C(=O)N/N=C/c3ccc([N+](=O)[O-])cc3)c(C)nc2s1
experimental endpoint: GI50
result: > 100 µM (inactive)

compound: CC1(Br)C(=O)NC(=O)N(C2CC(N=[N+]=[N-])C(CO)O2)C1N=[N+]=[N-] (stereo unspecified)
experimental endpoint: GI50
result: > 100 µM (inactive)

compound: CNC(=O)CNC(=O)CCC(=O)N(C)C
experimental endpoint: GI50
result: > 100 µM (inactive)

compound: CC1=C2C(=O)NN=C2CCN1c1ccc(Br)cc1
experimental endpoint: GI50
result: > 100 µM (inactive)

compound: C#CCN(Cc1ccc2nc(-c3ccccc3)c(N)nc2c1)c1cc(OC)c(OC)c(OC)c1
experimental endpoint: GI50
result: 18.7 µM (inactive)

compound: Cc1c2c(n3c(nc4ccccc43)c1C#N)N(c1ccc(Cl)cc1)CC2
experimental endpoint: GI50
result: > 100 µM (inactive)

compound: CC1=CC(=O)/C(=C(/C)NCCN(CCN/C(C)=C2\C(=O)C=C(C)OC2=O)CCN/C(C)=C2\C(=O)C=C(C)OC2=O)C(=O)O1
experimental endpoint: GI50
result: > 100 µM (inactive)

compound: O=c1[nH]c2nccn2c2c1SCCN2
experimental endpoint: GI50
result: > 100 µM (inactive)

compound: COc1cc(C2c3cc4c(cc3[C@@H](Nc3ccc5c(c3)OCO5)C3COC(=O)[C@H]23)OCO4)cc(OC)c1O (stereo partly specified)
experimental endpoint: GI50
result: 0.213 µM (active)
